Where do the numbers come from? From patent US20020137154A1.

Tested on: recombinant Escherichia coli KO11
Assay: Batch fermentation of E. coli KO11 in 1% CSL medium and xylose with nutrient additives: ethanol production and cell growth
Format: cell-based
Conditions: 1% CSL+xylose; additive 2 g/L unless indicated
Initial Growth (OD @ 24 h) OD listing for selected molecules.
Numbers only here, please. The scale is OD.

Known Initial Growth (OD @ 24 h) OD results, listed for orientation:
>>> value_reported("C[C@H](N)C(=O)O")
1.66
>>> value_reported("CC(=O)C(=O)O [Pyruvate, pyruvate]")
4.11
>>> value_reported("N[C@@H](CCC(=O)O)C(=O)O [Glutamate, glutamate]")
3.69
>>> value_reported("O=C(O)CCC(=O)O [Succinate, succinate]")
2.11
>>> value_reported("O=C(O)CC(O)C(=O)O (stereo not shown) [Malate, malate]")
1.71

Input: Look up Initial Growth (OD @ 24 h) OD for this molecule: O=C(O)CC(=O)C(=O)O [Oxaloacetate]
Output: 1.65

Input: Look up Initial Growth (OD @ 24 h) OD for this molecule: O=C(O)/C=C/C(=O)O [Fumarate]
Output: 1.86

Input: Look up Initial Growth (OD @ 24 h) OD for this molecule: O=C(O)CCC(=O)C(=O)O [a-KG, α-ketoglutarate]
Output: 3.55

Input: Look up Initial Growth (OD @ 24 h) OD for this molecule: O=C(O)CC(O)(CC(=O)O)C(=O)O [Citrate]
Output: 2.12

Input: Look up Initial Growth (OD @ 24 h) OD for this molecule: N[C@@H](CC(=O)O)C(=O)O [Aspartate, aspartate]
Output: 1.76
